Assay: protein stability index of a GFP-peptide fusion (yeast GPS) (PSI 1-4); higher = more stable; sorted into four equal gates, so the index is relative within each strain
Conditions: doa10∆
Kindly return Yes if reported protein stability index is no lower than 3; return No if it is lower.

| RESIDUE SEQUENCE | CLASS |
| --- | --- |
| DFISPELIIDKVTCSSN [MED1] | No |
| NRIIKADDHASVQINVA [RPS21A] | No |
| DQEKKYGMSITETFEKP [RPB2] | No |
| GHDADDGYQLFHAEPSG [PUP2] | Yes |
| ISLEALNFYITNVPKAK [SIR3] | No |
| FKKTLRSRISSPHGLIN [SRB4] | No |
| AKKSTTISKESTPDQRK [ESC2] | No |
| CRRMILTHVDLIEKFLR [RPB10] | No |
| VTVFLFMLILALFVFYS [COB] | No |
| IYRGVLNDENSDDYDNE [SMC1] | Yes |
| AENQTGESTVESEKLVT [RPC82] | Yes |
| DRCVDPEDPYFNTLVRI [DIS3] | Yes |
| QSKLKDVVEYLDKVINK [RPN8] | No |
| LDLLRPVVRAPTVKYNR [RPL13A] | No |
| KPTEVNDSENNSSEEDK [ITC1] | No |

----------
Experiment: protein stability index of a GFP-peptide fusion (yeast GPS) (PSI 1-4); higher = more stable; sorted into four equal gates, so the index is relative within each strain
Details: doa10∆

| RESIDUE SEQUENCE | protein stability index |
| --- | --- |
| ISELPPQIRQEIEQLDQ [YGL172W/NUP49] | 2.98 |
| TNSNNTPLQSQLNLNNL [PGD1] | 3.01 |
| PLLESFITFSLDDWISI [IRR1] | 3.04 |
| INSGLYSVLLESPLSVA [YML103C/NUP188] | 1.47 |
| SVDMSALKDPQTDADRV [RIP1] | 3.27 |
| TRLVQLREFRITHNTNI [GRR1] | 1.23 |
| FRGNISQPKIGYGSNKK [RPL32] | 2.88 |
| NTIIRDGSKMLKRADYT [RPN14] | 2.87 |
| GKAATAKETHTKPSETP [YOR098C/NUP1] | 2.57 |
| NTLGKGQNCLDIDGIMD [SNU114] | 3.3 |
| KGKTPKNAAESSYMGKH [PRP28] | 3.18 |
| LLNRIPRMYHIGLRQFQ [POP1] | 2.09 |
| LFLIIQCYKIYDLVILK [YMR129W/POM152] | 1.29 |
| GGTSDMNYLLDNKINEI [CSI1] | 2.85 |
| EIELKKLPKVYKRSIVR [SWI1] | 2.11 |
| IVRDLDRPGSKFHKREV [RPL3] | 3.07 |
| STEEIEYIELEYRDLYT [YMR129W/POM152] | 2.56 |
| FAGVASKKVTSGVPRLK [RPO21] | 3.03 |
| PTSPSYSPTSPSYSPTS [RPO21] | 2.59 |
| MAKDIEISASESKFILE [RRP45] | 3.17 |
| LESWWLVLGEVSKKELY [BRR2] | 1.68 |
| TSTGIIRCHREDCDLVI [POP5] | 2.67 |
| KNISSQLDSKLMVFNDD [YGR119C/NUP57] | 2.12 |
| LNDVVSFLFSAIPLQQV [SWI1] | 1.83 |
| DDSTKFQLVNDVMDELI [SIR3] | 3.29 |
| LLENSVDKNFDKLELYV [MTW1] | 3.03 |
| GLMSANNIIAEGIEKMG [FAS2] | 1.68 |
| AHTPMLQMYSKIRRHPN [FAS1] | 2.81 |
| QARIILNHILEKSTQLQ [YGR119C/NUP57] | 2.83 |
| TTTVLKRYANHTQDIIG [RET1] | 2.04 |
| TDLSGKETIARVTGGMK [RPS14A] | 3.06 |
| DIIMNPHGFPSRMTVGK [RET1] | 2.67 |
| PKSTKGKILTIKQQQQQ [YML103C/NUP188] | 2.39 |
| MATPSFGNSSPQLTFTH [YML103C/NUP188] | 2.75 |
| PRSDAQAIKEASYVNIP [RPS0A] | 2.88 |
| VKLLKTTVPIVSKKRQK [POP3] | 3.2 |
| FRNPTPLLSNYASKINR [RGR1] | 1.44 |
| AFLALVDAGIALNSMCA [RRP46] | 2.27 |
| KILEQFEYVLYPSKTLK [FAS2] | 3.01 |
